target: Histone deacetylase 8 (Homo sapiens) (UniProt Q9BY41); test: Inhibition of full length C-terminal His-tagged human HDAC8 expressed in baculovirus infected Sf9 insect cells using BPS HDAC class 2a substrate at 10 uM after 30 mins by fluorescence assay relative to control
Sequence (Q9BY41 whole entry): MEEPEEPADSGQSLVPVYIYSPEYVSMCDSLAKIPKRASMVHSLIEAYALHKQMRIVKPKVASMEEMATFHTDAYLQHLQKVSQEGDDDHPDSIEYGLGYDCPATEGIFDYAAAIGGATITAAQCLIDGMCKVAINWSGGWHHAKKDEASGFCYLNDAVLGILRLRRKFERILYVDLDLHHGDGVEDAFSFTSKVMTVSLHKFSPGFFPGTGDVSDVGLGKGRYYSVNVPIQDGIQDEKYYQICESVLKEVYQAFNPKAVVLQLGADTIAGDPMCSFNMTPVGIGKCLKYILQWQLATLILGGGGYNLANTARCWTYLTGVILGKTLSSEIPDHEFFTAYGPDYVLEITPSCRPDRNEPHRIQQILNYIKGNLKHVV
Reported inhibition values are given for each entry in this list.

Below are worked cases with known answers.
CCC(=O)CC/C=C/[C@@H]1CC(=O)NCc2nc(cs2)C2=N[C@@](C)(CS2)C(=O)N[C@@H](C(C)C)C(=O)O1
< 15%
CC(=O)CC(=O)NC/C=C/[C@@H]1CC(=O)NCc2nc(cs2)C2=N[C@@](C)(CS2)C(=O)N[C@@H](C(C)C)C(=O)O1
< 15%
CC(C)[C@@H]1NC(=O)[C@]2(C)CSC(=N2)c2csc(n2)CNC(=O)C[C@@H](/C=C/CCC(=O)O)OC1=O
20%
CCC/C=C/[C@@H]1CC(=O)NCc2nc(cs2)C2=N[C@@](C)(CS2)C(=O)N[C@@H](C(C)C)C(=O)O1
24%

Turning to the following molecule.
Ask | Would you mind telling me what inhibition value was observed for CC(C)[C@@H]1NC(=O)[C@]2(C)CSC(=N2)c2csc(n2)CNC(=O)C[C@@H](/C=C/CCN)OC1=O ?
Reply | < 15%
